Data origin, for the record: patent US7550459B2

- MEASUREMENT TARGET: M1 muscarinic receptor (Homo sapiens, UniProt P11229)
- Construct: expressed in transfected cells
- Sequence (P11229 whole entry): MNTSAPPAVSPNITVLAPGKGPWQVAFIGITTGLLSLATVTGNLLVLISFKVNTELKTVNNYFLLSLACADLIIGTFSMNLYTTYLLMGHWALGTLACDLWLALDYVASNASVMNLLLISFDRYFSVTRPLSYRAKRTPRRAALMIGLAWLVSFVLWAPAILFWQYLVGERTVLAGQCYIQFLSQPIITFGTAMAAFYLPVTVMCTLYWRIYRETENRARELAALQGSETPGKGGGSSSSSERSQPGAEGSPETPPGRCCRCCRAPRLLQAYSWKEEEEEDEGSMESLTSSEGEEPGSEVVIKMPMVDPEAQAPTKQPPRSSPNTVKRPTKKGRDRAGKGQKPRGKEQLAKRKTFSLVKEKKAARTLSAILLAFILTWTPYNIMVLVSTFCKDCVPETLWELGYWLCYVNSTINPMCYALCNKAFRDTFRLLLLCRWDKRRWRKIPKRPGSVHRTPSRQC
- EXPERIMENT: Receptor Selection and Amplification (R-SAT) assay, cloned M1 receptor
- Format: cell-based
- CONDITION INFO: R-SAT, second table (COMPOUND ID series); read-out: M1 pEC50 (converted)
- Description: The EC50 for an agonist is intended to denote the concentration of a compound needed to achieve 50% of a maximal response seen in an in vitro assay such as R-SAT. For inverse agonists, EC50 is intended to denote the concentration of a compound needed to achieve 50% inhibition of an R-SAT response from basal, no compound, levels. […]
Each item that follows carries a reported EC50.
Field format: number, assumed nM, no unit text.

// solved cases for EC50 follow
O=C1COc2cc(F)cc(F)c2N1CCCN1CCC(OCC2CC2)CC1; 794
O=C1COc2cc(F)c(F)cc2N1CCCN1CCC(OCC2CC2)CC1; 50.1

Please indicate EC50 recorded for C[C@H](CN1CCC(OCC2CC2)CC1)CN1C(=O)COc2ccccc21
12.6

Please indicate EC50 recorded for CC(CN1CCC(OC(=O)OCC2CCC2)CC1)CN1C(=O)COc2ccccc21 (racemic)
3980

###

- MEASUREMENT TARGET: M2 muscarinic receptor (Homo sapiens)
- Construct: expressed in transfected cells
- Sequence (P08172 1-466): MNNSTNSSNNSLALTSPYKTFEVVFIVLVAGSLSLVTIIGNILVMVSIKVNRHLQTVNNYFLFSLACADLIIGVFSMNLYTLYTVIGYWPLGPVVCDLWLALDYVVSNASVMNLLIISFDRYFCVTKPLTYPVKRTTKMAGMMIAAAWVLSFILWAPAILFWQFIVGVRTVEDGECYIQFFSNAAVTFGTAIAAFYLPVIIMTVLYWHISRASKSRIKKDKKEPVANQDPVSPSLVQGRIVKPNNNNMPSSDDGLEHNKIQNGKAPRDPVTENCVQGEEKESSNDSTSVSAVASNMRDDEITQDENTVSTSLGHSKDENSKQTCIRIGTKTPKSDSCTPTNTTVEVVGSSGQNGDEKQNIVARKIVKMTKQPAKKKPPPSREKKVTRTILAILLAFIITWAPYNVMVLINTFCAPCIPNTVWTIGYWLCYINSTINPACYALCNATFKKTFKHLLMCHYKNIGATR
- EXPERIMENT: Receptor Selection and Amplification (R-SAT) assay, cloned M2 receptor
- Format: cell-based
- CONDITION INFO: R-SAT, second table (COMPOUND ID series); read-out: M2 pEC50 (converted)
Each item that follows carries a reported EC50.
Field format: number, assumed nM, no unit text.

O=C1COc2cc(F)ccc2N1CCCN1CCC(OCC2CC2)CC1 [Compound 00262469]; 501
O=C1CCc2cc(F)c(F)cc2N1CCCN1CCC(OCC2CC2)CC1 [Compound 00262272]; 1000
COC(CN1CCC(OCC2CC2)CC1)CN1C(=O)COc2cc(F)ccc21 (racemic) [Compound 00262784]; 2000

Note: attention shifts to another entry.
Please indicate EC50 recorded for CCCC[C@]1(O)C[C@H]2CC[C@@H](C1)N2C[C@@H](C)CN1C(=O)COc2ccccc21 [Compound 00261478]
1260
